- Test system: HCC-2998 colon
- assay-comment: NCI tumour cell line growth inhibition, 48 h

| molecule | system-name | TGI |
| --- | --- | --- |
| CNCc1ccccc1-c1csc([C@@H](C)Nc2nc(C)nc3cc(OC)c(OC)cc23)c1 | HCC-2998 colon | 2.9 µM |
| c1ccc(-c2nnc(-c3ccccn3)s2)nc1 | HCC-2998 colon | > 100 µM |
| CCN(CC)CCCN1CCc2c([nH]c3ccccc23)C1c1cccnc1 (centres undefined) | HCC-2998 colon | > 100 µM |
| Nc1ccc2c(c1)C(=O)N1CCC[C@H]1C(=O)N2 | HCC-2998 colon | > 100 µM |
| O=C1CCC2(c3ccc(Cl)cc3)Nc3ncccc3N12 (centres undefined) | HCC-2998 colon | > 100 µM |
| NS(=O)(=O)c1ccc(/C=C/c2ccc(O)c(O)c2)cc1 | HCC-2998 colon | 41.7 µM |
| O=C(O)COc1ccc2c(=O)c3sc4c(=O)c5ccccc5c(=O)c4c3c(=O)c2c1 | HCC-2998 colon | 26.7 µM |
| CC1=C(C)CC2C(=O)N(c3cc(C(C)(C)C)ccc3C(C)(C)C)C(=O)C2C1 (centres undefined) | HCC-2998 colon | > 100 µM |
| CO/N=C(/C)c1cccc(Nc2cc(-n3nnc4ccccc43)nc3ccccc23)c1 | HCC-2998 colon | > 100 µM |
| Cc1ccc(-c2c(C#N)c(-c3ccc(C)cc3)n(NS(=O)(=O)c3ccccc3)c(=O)c2C#N)cc1 | HCC-2998 colon | > 100 µM |
| CC12C/C(=C\c3ccccc3)C(=O)C3C1CCCC32 | HCC-2998 colon | > 100 µM |
| Cc1ccc(-n2cnc(C(=N)C#N)c2N)cc1 | HCC-2998 colon | > 100 µM |
| CC(=O)Nc1ccc(S(=O)(=O)N2C(=O)CCC2C(=O)Nc2ccc(Br)cc2)cc1 (centres undefined) | HCC-2998 colon | 22.1 µM |
| O=c1[nH]nnc2c1sc1ncccc12 | HCC-2998 colon | > 100 µM |
| CCCC(=O)NC(NC1CCCCC1)(C(=O)OCC)C(F)(F)F (centres undefined) | HCC-2998 colon | > 100 µM |
| CC(=O)c1ccccc1NP(=O)(c1ccccc1)c1ccccc1 | HCC-2998 colon | > 100 µM |
| O=[N+]([O-])c1ccc2[nH]c(=S)[nH]c(=S)c2c1 | HCC-2998 colon | > 100 µM |
| CN(CCSCCN(C)C(=O)OC(C)(C)C)C(=O)OC(C)(C)C | HCC-2998 colon | > 100 µM |
| CC(C)(C)OC(=O)N(CCCCN(CCCNC(=O)C(F)(F)F)C(=O)OC(C)(C)C)CCCNC(=O)C(F)(F)F | HCC-2998 colon | > 100 µM |
| CC(=O)OC1COC(Oc2c(C)c3c4c(c2O)[C@@H](C)CC[C@@H]4[C@@H](C)C[C@H]3C=C(C)C)C(O)C1OC(C)=O (some centres undefined) | HCC-2998 colon | 8.84 µM |
| COc1cc(OC)cc(Oc2nc3ccccc3nc2C(F)(F)F)c1 | HCC-2998 colon | > 100 µM |
| Cc1ccc(S(=O)(=O)N(C=O)N=C2CCN(Cc3ccccc3)CC2)cc1 | HCC-2998 colon | > 100 µM |
| CC(C)N(C(=O)C12C3C4C1C1C4(C#N)C3C12C#N)C(C)C (centres undefined) | HCC-2998 colon | > 100 µM |
| Nc1nc(Cl)cc(NCCCCCCCCNc2cc(Cl)nc(N)n2)n1 | HCC-2998 colon | > 100 µM |
| Cc1ccc(C2SCC(=O)N2c2ccc(-n3c(-c4ccccc4)nc4ccccc4c3=O)cc2)cc1 (centres undefined) | HCC-2998 colon | 63.1 µM |
| Cc1ccc(S(=O)(=O)c2[nH]cc(/C(=C\C3CCCCC3)[N+](=O)[O-])c2C2CCCCC2)cc1 | HCC-2998 colon | 0.485 µM |
| Nc1c(C(=O)O)nnc2ccc(Cl)cc12 | HCC-2998 colon | > 100 µM |
| O=C1/C(=C/c2ccc(Br)s2)NC(=S)N1c1ccccc1 | HCC-2998 colon | > 100 µM |
| CN1CCN(C2CCN(C(=O)Nc3cc(Oc4ccc(NC(=O)C5(C(=O)Nc6ccc(F)cc6)CC5)c(F)c4)ccn3)CC2)CC1 | HCC-2998 colon | > 10 µM |

Each recorded value in this set is attributed to PubChem BioAssay (NCI).
